Target: Neuronal acetylcholine receptor subunit alpha-7 (Homo sapiens)
Assay: Partial agonist activity at human alpha7 nAChR expressed in xenopus oocytes assessed as induction of PAM-sensitive desensitization by measuring ratio of peak current to net charge at 30 uM by two-electrode voltage clamp electrophysiology relative to acetylcholine
Type: cell-based
measured.metric: Ratio
Answer with a number only.

Exercise: Read off the recorded Ratio for CC[N+]1(CC)CCN(c2ccc(C#N)cc2)CC1
Key: 0.43

Exercise: Read off the recorded Ratio for CC[N+]1(CC)CCN(c2cccc(O)c2)CC1
Key: 0.67

Exercise: Read off the recorded Ratio for CC[N+]1(CC)CCN(c2ccc3ccccc3c2)CC1
Key: 0.71

Exercise: Read off the recorded Ratio for CC[N+]1(CC)CCN(c2ccccc2Cl)CC1
Key: 0.63

Exercise: Read off the recorded Ratio for CC[N+]1(CC)CCN(c2ccccc2C)CC1
Key: 0.46

Exercise: Read off the recorded Ratio for CC[N+]1(CC)CCN(c2ccc(Cl)cc2)CC1
Key: 0.71

---

Molecular target: Neuronal acetylcholine receptor subunit alpha-7 (Homo sapiens)
Assay: Agonist activity at human alpha7 nAChR expressed in xenopus oocytes assessed as induction of PAM-sensitive desensitization at 30 uM by two-electrode voltage clamp electrophysiology relative to acetylcholine
Type: cell-based
Would you mind classing the entries by fold change (FC)? Ranges: zone 1: < 0.009; zone 2: ≥ 0.009 and < 0.03; zone 3: ≥ 0.03

Exercise: Which class is correct for the following molecule? CC[N+]1(CC)CCN(c2ccc(C)cc2)CC1
Key: zone 2

Exercise: Which class is correct for the following molecule? CC[N+]1(CC)CCN(c2ccc(Br)cc2)CC1
Key: zone 3

Exercise: Which class is correct for the following molecule? CCN1CCN(c2ccc(C(F)(F)F)cc2)CC1
Key: zone 1

Exercise: Which class is correct for the following molecule? CC[N+]1(CC)CCC(Nc2ccccc2)CC1
Key: zone 1

Exercise: Which class is correct for the following molecule? CC[N+]1(CC)CCN(c2ccc(C(F)(F)F)cc2)CC1
Key: zone 3

Exercise: Which class is correct for the following molecule? CCN1CCN(c2ccc(F)cc2)CC1
Key: zone 1

Exercise: Which class is correct for the following molecule? CC[N+]1(CC)CCN(c2ccc(C(N)=O)cc2)CC1
Key: zone 3

Exercise: Which class is correct for the following molecule? CC[N+]1(CC)CCN(c2cccc(C(F)(F)F)c2)CC1
Key: zone 1

Exercise: Which class is correct for the following molecule? CCN1CCN(c2cccc(Br)c2)CC1
Key: zone 1

Exercise: Which class is correct for the following molecule? CC[N+]1(CC)CCN(c2ccc(OC)cc2OC)CC1
Key: zone 2

Exercise: Which class is correct for the following molecule? CC[N+]1(CC)CCN(c2cccc(C)c2)CC1
Key: zone 1

Exercise: Which class is correct for the following molecule? CC[N+]1(CC)CCN(c2cccc(OC)c2)CC1
Key: zone 2

Exercise: Which class is correct for the following molecule? CC[N+]1(CC)CCN(c2cccc(C(N)=O)c2)CC1
Key: zone 3

Exercise: Which class is correct for the following molecule? CC[N+]1(CC)CCC(=Cc2ccccc2)CC1
Key: zone 3

Exercise: Which class is correct for the following molecule? CC[N+]1(CC)CCN(c2cccc(Cl)c2)CC1
Key: zone 2

Exercise: Which class is correct for the following molecule? CC[N+]1(CC)CCN(c2cccc(C#N)c2)CC1
Key: zone 2

Exercise: Which class is correct for the following molecule? CC[N+]1(CC)CCN(c2ccccc2)CC1
Key: zone 1

Exercise: Which class is correct for the following molecule? CC[N+]1(CC)CCN(c2cccc(F)c2)CC1
Key: zone 3

Exercise: Which class is correct for the following molecule? CC[N+]1(CC)CCN(c2cccc(Br)c2)CC1
Key: zone 3

Exercise: Which class is correct for the following molecule? CC[N+]1(CC)CCN(c2ccc(F)cc2)CC1
Key: zone 2

Exercise: Which class is correct for the following molecule? CC[N+]1(CC)CCN(c2ccc(OC)cc2)CC1
Key: zone 3
